tgt: Homeodomain-interacting protein kinase 3 (Homo sapiens)
method_description: HIPK3 kinase inhibitors, dose response, biochemical, Z'-LYTE, FRET, protease-coupled, direct format (AID 1671294)
protocol_conditions: Z'-LYTE FRET kinase activity, recombinant HIPK3
value_type: IC50

input: What value of measured IC50 is listed for Brc1c(Br)c(Br)c2n[nH]nc2c1Br ?
output: 5.1 µM
